Overview of reported viability, T/C across a group of molecules:
- Tested on: 168753-222-R-J1-PDC complex spheroid viability
- test-description: Anticancer human tumor 168753-222-R-J1-PDC patient-derived bladder carcinoma cell line growth inhibition [CLK]
- assay-conditions: second compound 0.316 µM; first compound 3.16 µM; stronger effect = lower value
observable: viability, T/C (%)

- COc1cccc2c1C(=O)c1c(O)c3c(c(O)c1C2=O)CC(O)(C(=O)CO)CC3OC1CC(N)C(O)C(C)O1 (stereo not given) + CNC(=O)c1ccc(Nc2nc(OC3CCCC3)c3c(-c4ccc5nc(C)oc5c4)c[nH]c3n2)c(OC)c1: 8
- CC1(C)CCC(CN2CCN(c3ccc(C(=O)NS(=O)(=O)c4ccc(NCC5CCOCC5)c([N+](=O)[O-])c4)c(Oc4cnc5[nH]ccc5c4)c3)CC2)=C(c2ccc(Cl)cc2)C1 + CN1CCN(c2cc(C(=O)Nc3cc4cc(-c5cnn(C)c5)ccc4cn3)ccn2)CC1: 8.36
- C=C(F)C(=O)N1CCN(c2nc(OCC3CCCN3C)nc3c2CCN(c2cccc4cccc(Cl)c24)C3)CC1CC#N (stereo not given) + CNC(=O)c1ccc(Nc2nc(OC3CCCC3)c3c(-c4ccc5nc(C)oc5c4)c[nH]c3n2)c(OC)c1: 90
- C=CC(=O)N1CCN(c2nc(=O)n(-c3c(C)ccnc3C(C)C)c3nc(-c4c(O)cccc4F)c(F)cc23)C(C)C1 (stereo not given) + CN1CCN(c2cc(C(=O)Nc3cc4cc(-c5cnn(C)c5)ccc4cn3)ccn2)CC1: 12.8
- CC(CO)NC(=O)c1cc(-c2ccc(Cl)cc2)nn(-c2cnn(C)c2)c1=O (stereo not given) + CNC(=O)c1ccc(Nc2nc(OC3CCCC3)c3c(-c4ccc5nc(C)oc5c4)c[nH]c3n2)c(OC)c1: 80.5
- COC1C=CCC(C)C(C)S(=O)(=O)NC(=O)c2ccc3c(c2)N(CC2CCC21)CC1(CCCc2cc(Cl)ccc21)CO3 (stereo not given) + CNC(=O)c1ccc(Nc2nc(OC3CCCC3)c3c(-c4ccc5nc(C)oc5c4)c[nH]c3n2)c(OC)c1: 30
- Nc1ccccc1NC(=O)c1ccc(CNC(=O)OCc2cccnc2)cc1 + CN1CCN(c2cc(C(=O)Nc3cc4cc(-c5cnn(C)c5)ccc4cn3)ccn2)CC1: 0.22
- CC(CO)NC(=O)c1cc(-c2ccc(Cl)cc2)nn(-c2cnn(C)c2)c1=O (stereo not given) + CN1CCN(c2cc(C(=O)Nc3cc4cc(-c5cnn(C)c5)ccc4cn3)ccn2)CC1: 19.1
- CC(=O)O[C@H]1C(=O)[C@@]2(C)[C@H]([C@H](OC(=O)c3ccccc3)[C@]3(O)C[C@H](OC(=O)[C@H](O)[C@@H](NC(=O)c4ccccc4)c4ccccc4)C(C)=C1C3(C)C)[C@]1(OC(C)=O)CO[C@@H]1C[C@@H]2O + CNC(=O)c1ccc(Nc2nc(OC3CCCC3)c3c(-c4ccc5nc(C)oc5c4)c[nH]c3n2)c(OC)c1: 85
- Nc1ccn(C2OC(CO)C(O)C2(F)F)c(=O)n1 (stereo not given) + CN1CCN(c2cc(C(=O)Nc3cc4cc(-c5cnn(C)c5)ccc4cn3)ccn2)CC1: 10.7
- O=C(c1cc(Cc2n[nH]c(=O)c3ccccc23)ccc1F)N1CCN(C(=O)C2CC2)CC1 + CNC(=O)c1ccc(Nc2nc(OC3CCCC3)c3c(-c4ccc5nc(C)oc5c4)c[nH]c3n2)c(OC)c1: 84.8
- CCCS(=O)(=O)Nc1ccc(F)c(C(=O)c2c[nH]c3ncc(-c4ccc(Cl)cc4)cc23)c1F + CNC(=O)c1ccc(Nc2nc(OC3CCCC3)c3c(-c4ccc5nc(C)oc5c4)c[nH]c3n2)c(OC)c1: 101
- C=C(F)C(=O)N1CCN(c2nc(OCC3CCCN3C)nc3c2CCN(c2cccc4cccc(Cl)c24)C3)CC1CC#N (stereo not given) + CN1CCN(c2cc(C(=O)Nc3cc4cc(-c5cnn(C)c5)ccc4cn3)ccn2)CC1: 4.48
- CC(Nc1ccc2c(c1)OCCn1cc(N3C(=O)OCC3C(F)F)nc1-2)C(N)=O (stereo not given) + CN1CCN(c2cc(C(=O)Nc3cc4cc(-c5cnn(C)c5)ccc4cn3)ccn2)CC1: 0.95
- COc1ccc([C@@H](O)c2cc(-c3ncnc4cc(N5CCOCC5)ccc34)c(F)cc2Cl)nn1 + CN1CCN(c2cc(C(=O)Nc3cc4cc(-c5cnn(C)c5)ccc4cn3)ccn2)CC1: 7.78
- COC1C=CCC(C)C(C)S(=O)(=O)NC(=O)c2ccc3c(c2)N(CC2CCC21)CC1(CCCc2cc(Cl)ccc21)CO3 (stereo not given) + CN1CCN(c2cc(C(=O)Nc3cc4cc(-c5cnn(C)c5)ccc4cn3)ccn2)CC1: 9.07
- C=CC(=O)N1CCN(c2nc(=O)n(-c3c(C)ccnc3C(C)C)c3nc(-c4c(O)cccc4F)c(F)cc23)C(C)C1 (stereo not given) + CNC(=O)c1ccc(Nc2nc(OC3CCCC3)c3c(-c4ccc5nc(C)oc5c4)c[nH]c3n2)c(OC)c1: 94.1
- O=c1[nH]cc(F)c(=O)[nH]1 + CNC(=O)c1ccc(Nc2nc(OC3CCCC3)c3c(-c4ccc5nc(C)oc5c4)c[nH]c3n2)c(OC)c1: 68.8
- O=c1[nH]cc(F)c(=O)[nH]1 + CN1CCN(c2cc(C(=O)Nc3cc4cc(-c5cnn(C)c5)ccc4cn3)ccn2)CC1: 8.45
- CC(Nc1ccc2c(c1)OCCn1cc(N3C(=O)OCC3C(F)F)nc1-2)C(N)=O (stereo not given) + CNC(=O)c1ccc(Nc2nc(OC3CCCC3)c3c(-c4ccc5nc(C)oc5c4)c[nH]c3n2)c(OC)c1: 9.36

====

- Tested on: 168753-222-R-J1-PDC complex spheroid viability
- test-description: Anticancer human tumor 168753-222-R-J1-PDC cell line growth inhibition [CLK]; active means viability on the fitted dose curve at most 10% of control; inactive means the rest;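 also: luminescence signal used as surrogate for viable cell amount; viability measured after seven days of drug exposure; 100% = DMSO vehicle control wells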
- assay-conditions: second compound 0.0316 µM; first compound 0.316 µM
Outcomes: label 1 = active, label 0 = inactive

• CCc1c2c(nc3ccc(O)cc13)-c1cc3c(c(=O)n1C2)COC(=O)[C@]3(O)CC + CN1CCN(c2cc(C(=O)Nc3cc4cc(-c5cnn(C)c5)ccc4cn3)ccn2)CC1 = label 0
• Nc1ccccc1NC(=O)c1ccc(CNC(=O)OCc2cccnc2)cc1 + CN1CCN(c2cc(C(=O)Nc3cc4cc(-c5cnn(C)c5)ccc4cn3)ccn2)CC1 = label 0
• CC(=O)O[C@H]1C(=O)[C@@]2(C)[C@H]([C@H](OC(=O)c3ccccc3)[C@]3(O)C[C@H](OC(=O)[C@H](O)[C@@H](NC(=O)c4ccccc4)c4ccccc4)C(C)=C1C3(C)C)[C@]1(OC(C)=O)CO[C@@H]1C[C@@H]2O + CNC(=O)c1ccc(Nc2nc(OC3CCCC3)c3c(-c4ccc5nc(C)oc5c4)c[nH]c3n2)c(OC)c1 = label 0
• Nc1ccn(C2OC(CO)C(O)C2(F)F)c(=O)n1 (stereo not given) + CNC(=O)c1ccc(Nc2nc(OC3CCCC3)c3c(-c4ccc5nc(C)oc5c4)c[nH]c3n2)c(OC)c1 = label 0
• COc1c(OCCCN2CCOCC2)ccc2c3n(c(=NC(=O)c4cnc(N)nc4)nc12)CCN3 + CNC(=O)c1ccc(Nc2nc(OC3CCCC3)c3c(-c4ccc5nc(C)oc5c4)c[nH]c3n2)c(OC)c1 = label 1
• C=C(F)C(=O)N1CCN(c2nc(OCC3CCCN3C)nc3c2CCN(c2cccc4cccc(Cl)c24)C3)CC1CC#N (stereo not given) + CNC(=O)c1ccc(Nc2nc(OC3CCCC3)c3c(-c4ccc5nc(C)oc5c4)c[nH]c3n2)c(OC)c1 = label 0
• CC(CO)NC(=O)c1cc(-c2ccc(Cl)cc2)nn(-c2cnn(C)c2)c1=O (stereo not given) + CNC(=O)c1ccc(Nc2nc(OC3CCCC3)c3c(-c4ccc5nc(C)oc5c4)c[nH]c3n2)c(OC)c1 = label 0
• C#Cc1c(F)ccc2cc(O)cc(-c3ncc4c(N5CC6CCC(C5)N6)nc(OCC56CCCN5CC(F)C6)nc4c3F)c12 (stereo not given) + CNC(=O)c1ccc(Nc2nc(OC3CCCC3)c3c(-c4ccc5nc(C)oc5c4)c[nH]c3n2)c(OC)c1 = label 0
• O=c1[nH]cc(F)c(=O)[nH]1 + CNC(=O)c1ccc(Nc2nc(OC3CCCC3)c3c(-c4ccc5nc(C)oc5c4)c[nH]c3n2)c(OC)c1 = label 0
• CCCS(=O)(=O)Nc1ccc(F)c(C(=O)c2c[nH]c3ncc(-c4ccc(Cl)cc4)cc23)c1F + CNC(=O)c1ccc(Nc2nc(OC3CCCC3)c3c(-c4ccc5nc(C)oc5c4)c[nH]c3n2)c(OC)c1 = label 0
• Nc1ccn(C2OC(CO)C(O)C2(F)F)c(=O)n1 (stereo not given) + CN1CCN(c2cc(C(=O)Nc3cc4cc(-c5cnn(C)c5)ccc4cn3)ccn2)CC1 = label 0
• CCN1CCN(Cc2ccc(Nc3ncc(F)c(-c4cc(F)c5nc(C)n(C(C)C)c5c4)n3)nc2)CC1 + CNC(=O)c1ccc(Nc2nc(OC3CCCC3)c3c(-c4ccc5nc(C)oc5c4)c[nH]c3n2)c(OC)c1 = label 0
• COc1cccc2c1C(=O)c1c(O)c3c(c(O)c1C2=O)CC(O)(C(=O)CO)CC3OC1CC(N)C(O)C(C)O1 (stereo not given) + CN1CCN(c2cc(C(=O)Nc3cc4cc(-c5cnn(C)c5)ccc4cn3)ccn2)CC1 = label 0
• CCc1c2c(nc3ccc(O)cc13)-c1cc3c(c(=O)n1C2)COC(=O)[C@]3(O)CC + CNC(=O)c1ccc(Nc2nc(OC3CCCC3)c3c(-c4ccc5nc(C)oc5c4)c[nH]c3n2)c(OC)c1 = label 0
• CCCS(=O)(=O)Nc1ccc(F)c(C(=O)c2c[nH]c3ncc(-c4ccc(Cl)cc4)cc23)c1F + CN1CCN(c2cc(C(=O)Nc3cc4cc(-c5cnn(C)c5)ccc4cn3)ccn2)CC1 = label 0
• Nc1ccccc1NC(=O)c1ccc(CNC(=O)OCc2cccnc2)cc1 + CNC(=O)c1ccc(Nc2nc(OC3CCCC3)c3c(-c4ccc5nc(C)oc5c4)c[nH]c3n2)c(OC)c1 = label 0
• O=C(c1cc(Cc2n[nH]c(=O)c3ccccc23)ccc1F)N1CCN(C(=O)C2CC2)CC1 + CN1CCN(c2cc(C(=O)Nc3cc4cc(-c5cnn(C)c5)ccc4cn3)ccn2)CC1 = label 0
• CC1COCCN1c1cc(C2(S(C)(=N)=O)CC2)nc(-c2ccnc3[nH]ccc23)n1 (stereo not given) + CNC(=O)c1ccc(Nc2nc(OC3CCCC3)c3c(-c4ccc5nc(C)oc5c4)c[nH]c3n2)c(OC)c1 = label 0
• CC(=O)O[C@H]1C(=O)[C@@]2(C)[C@H]([C@H](OC(=O)c3ccccc3)[C@]3(O)C[C@H](OC(=O)[C@H](O)[C@@H](NC(=O)c4ccccc4)c4ccccc4)C(C)=C1C3(C)C)[C@]1(OC(C)=O)CO[C@@H]1C[C@@H]2O + CN1CCN(c2cc(C(=O)Nc3cc4cc(-c5cnn(C)c5)ccc4cn3)ccn2)CC1 = label 0
• O=c1[nH]cc(F)c(=O)[nH]1 + CN1CCN(c2cc(C(=O)Nc3cc4cc(-c5cnn(C)c5)ccc4cn3)ccn2)CC1 = label 0
